assay: ATG_ERE_CIS: Attagene CIS-FACTORIAL HepG2 Assay for Estrogen Response Element (ERE) (AID 2282940); settings: HepG2 ERE cis-reporter, Attagene RNA transcript; actives raise or lower the signal
Active and inactive are the calls of the source. How the source made its calls: active means hit-call score of the fitted dose curve at least 0.9, where 1 is the maximum; inactive means score below 0.9.
Bench note: report the call from Y (active), N (inactive)

Example entries and their recorded answers appear below.
CC(C)Oc1cc(-n2nc(C(C)(C)C)oc2=O)c(Cl)cc1Cl    Y
CCOC(=O)C(Cl)Cc1cc(-n2nc(C)n(C(F)F)c2=O)c(F)cc1Cl (stereo not given)    Y
CS/C(C)=N/OC(=O)N(C)SN(C)C(=O)O/N=C(\C)SC    N
O=C(O)COc1nc(Cl)c(Cl)cc1Cl    N

Moving on to the next molecule.
QUERY: What was the test verdict on "CCNc1nc(Cl)nc(NC(C)C)n1" ?
RESULT: N

----------
test: ATG_Oct_MLP_CIS: Attagene CIS-FACTORIAL HepG2 Assay for human Octamer-Binding Transcription Factor (Oct) (AID 2282993); details: HepG2 Attagene cis-factorial Oct reporter, mRNA; actives raise or lower the signal
The source made the active and inactive calls. Rule for the calls: active = hit-call score of the fitted dose curve at least 0.9, where 1 is the maximum; inactive = score below 0.9.
Bench note: report the call from YES for active, NO for inactive

Example entries and their recorded answers appear below.
CC(C)C1(C)N=C(c2nc3ccccc3cc2C(=O)O)NC1=O (centres undefined)    NO
CC(Oc1ccc(Cl)cc1Cl)C(=O)O (centres undefined)    NO
CCOC(=O)C(Cl)Cc1cc(-n2nc(C)n(C(F)F)c2=O)c(F)cc1Cl (centres undefined)    NO

QUERY: What was the test verdict on COP(N)(=O)SC (centres undefined) ?
RESULT: NO

QUERY: What was the test verdict on "CCOP(=S)(OCC)SCn1c(=O)oc2cc(Cl)ccc21" ?
RESULT: YES

QUERY: What was the test verdict on C=CC1(C)OC(=O)N(c2cc(Cl)cc(Cl)c2)C1=O (centres undefined) ?
RESULT: NO

QUERY: What was the test verdict on "Cc1ccc(-c2c(Cl)nc(C#N)n2S(=O)(=O)N(C)C)cc1" ?
RESULT: YES

QUERY: What was the test verdict on CCON=C(CC)C1=C(O)CC(c2c(C)cc(C)cc2C)CC1=O (centres undefined) ?
RESULT: NO

QUERY: What was the test verdict on "Cc1cc(Cl)ccc1OCC(=O)O" ?
RESULT: NO

QUERY: What was the test verdict on "CS/C(C)=N/OC(=O)N(C)SN(C)C(=O)O/N=C(\C)SC" ?
RESULT: NO

----------
read-out: CYP4A11 (gene 1579); assay: LTEA_HepaRG_CYP4A11: Life Technologies and Expression Analysis (LTEA) Assay for CYP4A11 using HepaRG (AID 2283486); settings: mRNA level, 48 h; actives raise or lower the signal
Calls of active or inactive are those of the source. How the source made its calls: active means hit-call score of the fitted dose curve at least 0.9, where 1 is the maximum; inactive means score below 0.9.
Bench note: report the call from T = active, F = inactive

CCCCNC(=O)n1c(NC(=O)OC)nc2ccccc21    F
CNC(=S)S    F

QUERY: What was the test verdict on CC(C)C1(C)N=C(c2nc3ccccc3cc2C(=O)O)NC1=O (stereo unspecified) ?
RESULT: F

QUERY: What was the test verdict on "O=C(O)COc1nc(Cl)c(Cl)cc1Cl" ?
RESULT: F

QUERY: What was the test verdict on "O=C(Nc1ccccc1)Nc1ccnc(Cl)c1" ?
RESULT: T

QUERY: What was the test verdict on "CC(C)Oc1cc(-n2nc(C(C)(C)C)oc2=O)c(Cl)cc1Cl" ?
RESULT: T
